Recorded pIC50, one value per entry.
target: 5-LO (Rattus norvegicus, UniProt P12527)
Construct: the supernatant was saved as the source of enzymes; endogenous in cells; host or cells: RBL-1 (rat basophilic leukemia) cells
Sequence (P12527 whole entry): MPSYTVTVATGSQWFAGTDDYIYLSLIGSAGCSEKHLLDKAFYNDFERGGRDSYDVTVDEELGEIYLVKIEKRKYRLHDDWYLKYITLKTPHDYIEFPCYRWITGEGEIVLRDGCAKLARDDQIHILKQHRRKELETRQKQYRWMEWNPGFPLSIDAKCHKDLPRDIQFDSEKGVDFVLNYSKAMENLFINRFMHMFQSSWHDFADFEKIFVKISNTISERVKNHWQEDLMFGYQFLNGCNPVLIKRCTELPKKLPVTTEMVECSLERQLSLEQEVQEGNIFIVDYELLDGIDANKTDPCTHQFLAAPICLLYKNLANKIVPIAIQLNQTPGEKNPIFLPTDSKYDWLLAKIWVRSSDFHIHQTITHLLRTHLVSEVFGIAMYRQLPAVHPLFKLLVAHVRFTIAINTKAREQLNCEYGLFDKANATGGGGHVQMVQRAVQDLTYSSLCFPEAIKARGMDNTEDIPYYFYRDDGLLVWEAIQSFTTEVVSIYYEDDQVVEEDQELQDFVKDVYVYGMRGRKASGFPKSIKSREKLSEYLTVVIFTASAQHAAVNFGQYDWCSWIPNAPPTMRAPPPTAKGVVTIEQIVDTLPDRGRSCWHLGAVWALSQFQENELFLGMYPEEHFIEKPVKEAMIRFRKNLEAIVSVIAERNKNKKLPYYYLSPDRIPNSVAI
measurement-description: Procedure III: 5-LO (5-HETE) in intact RBL-1 cells
Type: cell-based
assay-setup: calcium ionophore A 23187, read-out: Proc. III 5-LO IC50
pIC50: −log10 of the molar value.
recorded-metric: pIC50

[
  {
    "compound": "COc1ccc(-n2nc(C#CC(C)N(O)C(=O)CCl)cc2-c2ccc(C)cc2)cc1 (centres unmarked)",
    "measured": 4.63
  },
  {
    "compound": "COc1ccc(-n2nc(C#CC(C)N(O)C(C)=O)cc2-c2ccc(Cl)cc2)cc1 (centres unmarked)",
    "measured": 5.09
  },
  {
    "compound": "COc1ccc(-n2nc(C#CC(C)N(O)C(=O)Cn3ccnc3)cc2-c2ccc(C)cc2)cc1 (centres unmarked)",
    "measured": 4.41
  },
  {
    "compound": "CCc1ccc(-c2cc(C#CC(C)N(O)C(=O)C(C)C)nn2-c2ccc(OC)cc2)cc1 (centres unmarked)",
    "measured": 4.88
  },
  {
    "compound": "COC(=O)N(O)CC#Cc1cc(-c2ccc(C)cc2)n(-c2ccc(OC)cc2)n1",
    "measured": 5.06
  },
  {
    "compound": "CCOC(=O)CCC(=O)N(O)C(C)C#Cc1cc(-c2ccc(C)cc2)n(-c2ccc(OC)cc2)n1 (centres unmarked)",
    "measured": 5.00
  },
  {
    "compound": "COC(=O)N(O)C(C)C#Cc1cc(-c2ccc(Cl)cc2)n(-c2ccc(OC)cc2)n1 (centres unmarked)",
    "measured": 5.06
  },
  {
    "compound": "COc1ccc(-n2nc(C#CC(C)N(O)C(=O)N3CCOCC3)cc2-c2ccc(Cl)cc2)cc1 (centres unmarked)",
    "measured": 4.92
  }
]
